Measured values drawn from the RNAGym collection of RNA variant scans (doi:10.1021/acssynbio.7b00057) for this set.

B1: Pistol ribozyme (parent)
chain: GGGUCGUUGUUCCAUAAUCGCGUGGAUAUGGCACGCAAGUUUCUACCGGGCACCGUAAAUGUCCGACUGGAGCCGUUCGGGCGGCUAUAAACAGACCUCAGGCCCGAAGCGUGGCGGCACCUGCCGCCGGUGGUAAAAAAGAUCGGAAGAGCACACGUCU

- Variants of: B1
- Protocol notes: aptazyme ON/OFF ratio, guanine; higher = stronger switching; co-transcriptional cleavage with and without guanine
Readout label: aptazyme ON/OFF ratio

### Prompt Data request, read-out aptazyme ON/OFF ratio, for U7A U8A U10C U11C C12G C13U
### Response 1.08

### Prompt // repeat for U7A G9C U10G U11C C13U and report
### Response 1.03

### Prompt What do we get for U7G U8A U10G C13A ?
### Response 1.3

### Prompt Continue with U7C U8A U10C U11G C13U
### Response 1.16

### Prompt Please give the result for U7A G9A U10C U11G C12U C13A too.
### Response 1.15

### Prompt Also check U8A G9C U11A C12U C13G
### Response 1.15

### Prompt Now the variant U7G U8A G9C U11A C12G C13U
### Response 1.04

### Prompt Continue with U8G G9C U10A U11C C12G
### Response 1.14

### Prompt Also G9U ?
### Response 4.29

### Prompt What about U7C U8G U10C U11G C12G ?
### Response 1.32

### Prompt Then what about the variant G9C U11C ?
### Response 1.18
